Reference source for all entries: the supplement of paper PMC4862054

- Tested on: HCC1599
- protocol.description: normalised viability (% of control), CellTiter-Blue; higher = more viable cells (about 100 = DMSO control)
- particulars: 10 nM; incubation time: 72 h
Assign normalised viability to each entry below.
Numbers only, in %.

Completed entries (count: 3):
CS(=O)(=O)N1CCN(Cc2cc3nc(-c4cccc5[nH]ncc45)nc(N4CCOCC4)c3s2)CC1 [GDC-0941] | 96.8
COc1ccc(-c2cc3c(C)nc(N)nc3n([C@H]3CC[C@H](OCCO)CC3)c2=O)cn1 | 115
Cc1ccc(Nc2nccc(N(C)c3ccc4c(C)n(C)nc4c3)n2)cc1S(N)(=O)=O [Pazopanib] | 96.5

Shifting focus to the compound that follows.
Would you mind telling me what normalised viability value was observed for O=C(Nc1c[nH]nc1-c1nc2ccc(CN3CCOCC3)cc2[nH]1)NC1CC1 [AT9283] ?
102

* * *

Assign normalised response to each entry below.
- System: MCF-10A
- protocol.description: normalised response (% of control), CellTiter-Glo; higher = more viable cells (100 = DMSO, 0 = benzethonium chloride kill control)
- particulars: incubation time: 72 h
Numbers only, in %.

Nc1cccc2c1CN(C1CCC(=O)NC1=O)C2=O (centres undefined) [Lenalidomide] (1000 nM) | 103

Field: normalised response. Fill in for each record below.
1. CCCCC/C=C/C=C1/C(=O)C=C[C@@H]1C/C=C\CCCC(=O)O [15D-PGJ2] (0.8 nM)
2. CC(C)N(CCCNC(=O)Nc1ccc(C(C)(C)C)cc1)C[C@H]1O[C@@H](n2cc(Br)c3c(N)ncnc32)[C@H](O)[C@@H]1O [SGC0946] (1000 nM)
3. O=C1c2c(O)ccc(O)c2C(=O)c2c(NCCNCCO)ccc(NCCNCCO)c21 [Mitoxantrone] (0.1 nM)

[104, 97.9, 103]

* * *

- System: MDA-MB-231
- protocol.description: normalised response (% of control), CellTox Green; higher = less cell death (100 = DMSO, 0 = benzethonium chloride kill control)
- particulars: incubation time: 72 h
Rule: normalised response under 90% gives f, otherwise t.

Examples with answers:
COc1ccc(-c2cc3c(C)nc(N)nc3n([C@H]3CC[C@H](OCCO)CC3)c2=O)cn1 (10000 nM) | f
Cc1c(CN2CCN(C(=O)[C@H](C)O)CC2)sc2c(N3CCOCC3)nc(-c3cnc(N)nc3)nc12 [GDC-0980] (100 nM) | f
CCCCC/C=C/C=C1/C(=O)C=C[C@@H]1C/C=C\CCCC(=O)O [15D-PGJ2] (800 nM) | t

Has CNC(=O)c1cc(Oc2ccc(NC(=O)Nc3ccc(Cl)c(C(F)(F)F)c3)cc2)ccn1 [Sorafenib] (100 nM) a recorded normalised response greater than or equal to 90%?
t

Has Cc1ccc(Nc2nccc(N(C)c3ccc4c(C)n(C)nc4c3)n2)cc1S(N)(=O)=O [Pazopanib] (1000 nM) a recorded normalised response greater than or equal to 90%?
t

Has Cc1ccc(Nc2nccc(N(C)c3ccc4c(C)n(C)nc4c3)n2)cc1S(N)(=O)=O [Pazopanib] (100 nM) a recorded normalised response greater than or equal to 90%?
t

Has O=S(=O)(c1cccc2cnccc12)N1CCCNCC1 [Fasudil] (500 nM) a recorded normalised response greater than or equal to 90%?
t

Has Cc1cccc(-c2nn3c(c2-c2ccnc4ccc(C(N)=O)cc24)CCC3)n1 [Galunisertib] (1000 nM) a recorded normalised response greater than or equal to 90%?
t

Has Cn1cc(CNCC2CCN(c3ncc(C(=O)NO)cn3)CC2)c2ccccc21 [Quisinostat] (10 nM) a recorded normalised response greater than or equal to 90%?
t

Has Nc1ccccc1NC(=O)c1ccc(CNc2nccc(-c3cccnc3)n2)cc1 [Mocetinostat] (10000 nM) a recorded normalised response greater than or equal to 90%?
f

Has O=C1c2c(O)ccc(O)c2C(=O)c2c(NCCNCCO)ccc(NCCNCCO)c21 [Mitoxantrone] (100 nM) a recorded normalised response greater than or equal to 90%?
t
